IC50 values, listed per item
Target: recombinant GSK3β enzyme (human GSK3β) (Homo sapiens, UniProt P49841)
Construct: FLAG (N)
Sequence (P49841 whole entry): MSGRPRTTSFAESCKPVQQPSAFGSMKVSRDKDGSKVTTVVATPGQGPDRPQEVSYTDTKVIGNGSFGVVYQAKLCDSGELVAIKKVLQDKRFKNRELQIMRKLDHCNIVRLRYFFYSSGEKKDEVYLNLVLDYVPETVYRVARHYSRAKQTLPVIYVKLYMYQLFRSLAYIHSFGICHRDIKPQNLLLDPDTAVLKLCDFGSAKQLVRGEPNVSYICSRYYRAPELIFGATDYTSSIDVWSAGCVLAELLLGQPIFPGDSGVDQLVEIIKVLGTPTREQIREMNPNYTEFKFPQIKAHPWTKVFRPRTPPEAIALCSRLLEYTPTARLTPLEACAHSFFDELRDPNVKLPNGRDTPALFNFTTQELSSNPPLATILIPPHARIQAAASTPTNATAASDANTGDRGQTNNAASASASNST
Test: Measurement of GSK3β inhibitory activity
Settings: glycogen synthase peptide substrate, Kinase Glo luminescence, read-out: IC50 (concentration of test compound needed for 50% inhibition of luminescent intensity), GSK3β inhibitory activity
Quantity: IC50

- Line Notation: "O=C(COc1ccccc1)Nc1c[nH]nc1C(=O)NC1CCCC1"
  Quantity: "IC50"
  Result: "< 100 nM"
- Line Notation: "Cc1ccc(C(=O)Nc2c[nH]nc2C(=O)NCCC#N)cc1"
  Quantity: "IC50"
  Result: "< 100 nM"
- Line Notation: "O=C(Nc1c[nH]nc1C(=O)NCCc1ccccc1)c1cnccn1"
  Quantity: "IC50"
  Result: "< 100 nM"
- Line Notation: "COc1ccccc1CC(=O)Nc1c[nH]nc1C(=O)NC(C)C"
  Quantity: "IC50"
  Result: "245 nM"
- Line Notation: "O=C(Nc1c[nH]nc1C(=O)NCc1ccco1)c1ccccn1"
  Quantity: "IC50"
  Result: "< 100 nM"
- Line Notation: "Cc1ncccc1C(=O)Nc1c[nH]nc1C(=O)NC1CCCC1"
  Quantity: "IC50"
  Result: "< 100 nM"
- Line Notation: "N#Cc1ccc(NCCNC(=O)c2n[nH]cc2NC(=O)c2ccccn2)nc1"
  Quantity: "IC50"
  Result: "< 100 nM"
- Line Notation: "O=C(Nc1c[nH]nc1C(=O)NCc1ccco1)c1ccccc1"
  Quantity: "IC50"
  Result: "< 100 nM"
- Line Notation: "CCOCC(=O)Nc1c[nH]nc1C(=O)NC1CCCC1"
  Quantity: "IC50"
  Result: "< 100 nM"
- Line Notation: "O=C(Nc1c[nH]nc1C(=O)NCc1ccco1)c1ccc(OC(F)(F)F)cc1"
  Quantity: "IC50"
  Result: "194 nM"
- Line Notation: "O=C(NC1CCCC1)c1n[nH]cc1NC(=O)c1c(F)cccc1F"
  Quantity: "IC50"
  Result: "< 100 nM"
- Line Notation: "COc1ccc(C(=O)Nc2c[nH]nc2C(=O)NC(C)C)cc1"
  Quantity: "IC50"
  Result: "< 100 nM"
- Line Notation: "O=C(Nc1c[nH]nc1C(=O)NCc1ccco1)c1ccc(C(F)(F)F)cc1"
  Quantity: "IC50"
  Result: "271 nM"
- Line Notation: "CC(C)NC(=O)c1n[nH]cc1NC(=O)Cc1ccc(-c2ccccc2)cc1"
  Quantity: "IC50"
  Result: "233 nM"
- Line Notation: "O=C(Nc1c[nH]nc1C(=O)NC1CCCCC1)c1ccccn1"
  Quantity: "IC50"
  Result: "< 100 nM"
- Line Notation: "CNC(=O)c1n[nH]cc1NC(=O)C(c1ccccc1)c1ccccc1"
  Quantity: "IC50"
  Result: "< 100 nM"
- Line Notation: "CC(=O)Nc1cccc(C(=O)Nc2c[nH]nc2C(=O)NC(C)C)c1"
  Quantity: "IC50"
  Result: "< 100 nM"
- Line Notation: "CC(C)NC(=O)c1n[nH]cc1NC(=O)c1cnccn1"
  Quantity: "IC50"
  Result: "< 100 nM"
- Line Notation: "O=C(Nc1c[nH]nc1C(=O)NCCc1ccccc1)c1ccc(C(F)(F)F)cc1"
  Quantity: "IC50"
  Result: "101 nM"
